Some binders, each annotated with its measured Kd.
# study-system: T1, Y. pestis F1 protein (Yersinia pestis KIM5, UniProt P26948 22-170)
# T1 construct: also called F1 antigen; Fl
# T1 sequence (P26948 22-170 limits assumed): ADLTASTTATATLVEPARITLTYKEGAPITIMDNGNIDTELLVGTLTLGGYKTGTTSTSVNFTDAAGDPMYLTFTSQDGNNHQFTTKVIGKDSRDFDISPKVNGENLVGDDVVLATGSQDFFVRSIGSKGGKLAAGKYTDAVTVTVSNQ
# assay-remarks: SPR, BIACORE, F1 immobilized on CM5 chip

>  <binder>
3F1 (VHH) VHH: QVQLQESGGGLVQPGGSLRLSCAASGFTFSTSAMSWIRQPPGKAREVVATITSAGGSISYVNSVKGRFTISRDNAKNTLYLQMNMLKPEDTAVYYCARLVNLAQTGQGTQVTVSS

>  <measurement-unit>
nM

>  <Kd>
97

$$$$
>  <binder>
4F6 (VHH) VHH: QVQLQESGGGSVQPGGSLSLSCSASGIIFSDYALTWYRQAPGKQREWVAQITRSQNINYTGSVKGRFTVSRDNAKNTVHLQMNSLKPEDTAVYYCHAYDGRRRTYWGQGTQVTVSS

>  <measurement-unit>
nM

>  <Kd>
34

$$$$
